assay: blockers of DNA damage checkpoint Chk1 activation – imaging, HeLa, hydroxyurea, phospho-Chk1 antibody, percent positive cells, primary screen (AID 1186); conditions: hydroxyurea-induced phospho-Chk1 immunofluorescence imaging, higher = more signal
Label Satisfied when z-score is at or above 0.1; anything below gets Not satisfied.

Would you say CN(C)CCCCNC(=O)[C@H]1C[C@H]2C(=O)N3CCC[C@H]3C(=O)N2[C@H]1c1cccc(OCCO)c1 shows z-score at minimum 0.1?
Not satisfied

---

assay: plasmodial surface anion channel blockers, osmotic lysis – cell-based, P. falciparum Indochina, OD700, 18 h, primary screen (AID 1157); settings: P. falciparum Indochina infected erythrocytes, osmotic lysis OD700, 18 h; higher = more signal, called active from +8 up or from −8 down
Property measured: z-score
Reply with just the number.

Study these solved cases before continuing.
CCOC(=O)C1=CC[C@@H](c2ccc(OC)cc2)N(S(=O)(=O)c2ccc(C)cc2)[C@H]1CC : -1.62
CC(C)(C)N1CC=CC23O[C@@H]4C=CCOC(=O)[C@@H]4[C@H]2C(=O)N(CCO)[C@@H]3C1=O (some centres undefined) : 0.526
COC(=O)[C@@]1(Cc2ccc(F)cc2)[C@H]2c3cc(C(=O)N4CCCC4)n(CCc4ccccn4)c3C[C@H]2CN1C(=O)c1ccccc1 : 0.446

Now let's try a different one.
Give the reported z-score for this molecule. CCOC(=O)C[C@H]1[C@H](OC(=O)Cc2ccc3c(c2)OCO3)[C@@H](NC(=O)Cc2ccc(OC)cc2)c2cc(OCCCO)ccc2N1C(=O)Cc1ccc(OC)cc1
-0.395

Values from PubChem BioAssay
